Attribution: paper PMC11396746

# PROCEDURE_TEXT: Pharmacokinetic study in male SD rats
# Type: in vivo
# MEASUREMENT_CONTEXT: male, Sprague-Dawley, plasma; rat, PO 5 mg/kg
PARAMETER_MEASURED: half-life (h)

>  <ITEM_SMILES>
O=C1CC[C@H](N2Cc3cc(N4CCN(CC5CCN(c6ccc([C@@H]7c8ccc(O)cc8CC[C@@H]7c7ccccc7)cc6)CC5)CC4)ccc3C2=O)C(=O)N1

>  <RESULT_VALUE>
4.07

$$$$

---

# PROCEDURE_TEXT: Plasma protein binding (PPB) using a rapid equilibrium dialysis device
# Type: in vitro ADME
# MEASUREMENT_CONTEXT: plasma; calculated assuming buffer concentration at the lowest quantifiable limit; actual PPB likely higher

>  <ITEM_SMILES>
O=C1CC[C@H](N2Cc3cc(N4CCN(CC5CCN(c6ccc([C@@H]7c8ccc(O)cc8CC[C@@H]7c7ccccc7)cc6)CC5)CC4)ccc3C2=O)C(=O)N1

>  <fraction unbound at 4 h>
0.001

$$$$

---

# PROCEDURE_TEXT: Pharmacokinetic study in male SD rats
# Assay type: in vivo
# MEASUREMENT_CONTEXT: rat, IV 2 mg/kg

>  <ITEM_SMILES>
O=C1CC[C@H](N2Cc3cc(N4CCN(CC5CCN(c6ccc([C@@H]7c8ccc(O)cc8CC[C@@H]7c7ccccc7)cc6)CC5)CC4)ccc3C2=O)C(=O)N1

>  <AUClast [ng·h/mL]>
1880

$$$$

---

# PROCEDURE_TEXT: Pharmacokinetic study in male ICR mice
# Type: in vivo
# MEASUREMENT_CONTEXT: male, ICR, plasma; mouse, PO 5 mg/kg

>  <COMPOUND>
O=C1CC[C@H](N2Cc3cc(N4CCN(CC5CCN(c6ccc([C@@H]7c8ccc(O)cc8CC[C@@H]7c7ccccc7)cc6)CC5)CC4)ccc3C2=O)C(=O)N1 [vepdegestrant, Vepdegestrant]

>  <UOM>
h

>  <half-life>
3.64

$$$$
